# assay_notes: in vitro
# reported_conditions: human, HEK293 viability
quantity_measured: viability at 2 days, 12.5 µM (%)

>>> reported("Fc1ccc(C(c2ccc(F)cc2)N2CCN(C/C=C/c3ccccc3)CC2)cc1")
99.4

----------
# test_system: C. elegans (N2) complex I (NADH:ubiquinone oxidoreductase) (Caenorhabditis elegans, UniProt P24887+Q93873+Q94360)
# Sequence (Q94360 17-199): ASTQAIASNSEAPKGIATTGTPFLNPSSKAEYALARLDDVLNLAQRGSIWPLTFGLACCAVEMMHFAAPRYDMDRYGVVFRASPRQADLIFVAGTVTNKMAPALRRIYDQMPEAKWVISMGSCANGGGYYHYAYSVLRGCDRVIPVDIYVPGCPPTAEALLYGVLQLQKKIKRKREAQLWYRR
# Sequence (P24887 whole entry): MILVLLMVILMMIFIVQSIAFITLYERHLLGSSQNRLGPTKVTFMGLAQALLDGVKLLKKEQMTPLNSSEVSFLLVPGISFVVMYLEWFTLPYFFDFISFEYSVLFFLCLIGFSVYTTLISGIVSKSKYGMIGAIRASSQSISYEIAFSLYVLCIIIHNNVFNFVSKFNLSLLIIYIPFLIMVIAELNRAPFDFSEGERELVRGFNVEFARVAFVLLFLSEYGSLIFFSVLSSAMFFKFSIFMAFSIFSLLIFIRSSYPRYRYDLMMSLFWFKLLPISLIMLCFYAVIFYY
# Sequence (Q93873 31-482): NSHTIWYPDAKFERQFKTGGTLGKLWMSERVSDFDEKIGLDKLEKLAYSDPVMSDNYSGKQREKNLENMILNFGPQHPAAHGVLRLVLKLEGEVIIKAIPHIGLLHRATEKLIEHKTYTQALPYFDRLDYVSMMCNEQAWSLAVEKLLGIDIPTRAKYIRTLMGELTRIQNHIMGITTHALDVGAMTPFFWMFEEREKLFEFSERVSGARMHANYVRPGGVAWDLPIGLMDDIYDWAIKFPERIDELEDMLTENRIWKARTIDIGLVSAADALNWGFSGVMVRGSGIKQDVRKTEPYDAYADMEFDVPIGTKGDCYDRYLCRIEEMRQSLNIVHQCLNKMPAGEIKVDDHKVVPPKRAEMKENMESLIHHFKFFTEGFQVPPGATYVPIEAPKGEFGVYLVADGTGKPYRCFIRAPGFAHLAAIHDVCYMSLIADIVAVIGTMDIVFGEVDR
# assay_notes: biochemical
# Assay type: biochemical
# reported_conditions: Dose 15 µM; read-out: C. elegans mitochondrial complex I activity
Overview of recorded activity at 15 µM for various molecules
quantity_measured: activity at 15 µM (%)

>>> reported("Cc1ccc(C(C)C)c(OCC(O)Cn2cnc3ccccc32)c1 (stereo not shown)")
1.13
>>> reported("CCc1cc(OCCn2cnc3ccccc32)ccc1Cl")
16.1
>>> reported("Cc1ccc(OCCn2cnc3ccccc32)cc1")
18.9
>>> reported("Clc1ccc(Cn2cnc3ccccc32)c(Cl)c1")
4.66
>>> reported("Cc1nc2ccccc2n1Cc1ccc(Cl)c(Cl)c1")
0.44
>>> reported("Clc1ccc(Cn2cnc3ccccc32)cc1Cl")
19
>>> reported("Brc1ccccc1OCCCCn1cnc2ccccc21")
10.2
>>> reported("FC(F)(F)c1cccc(OCCCCn2cnc3ccccc32)c1")
22.1
>>> reported("Clc1ccc(SCCCCn2cnc3ccccc32)cc1")
10.5
>>> reported("Cc1nc2ccccc2n1CCOc1ccccc1Cl")
12.4
